- ASSAYED SYSTEM: pooled human IgG (human IgG1,2,3 and 4)
Recorded Enzyme Activity Endpoint Assay: IgG by entry

**Q:** Hello, please tell me recorded Enzyme Activity Endpoint Assay: IgG for this one: PRT-323 (protein) MTITSVWTKGVTPPTPEDFRENNEDVLHAPYVANQGWYDITKTFDGKDNLLCGAATAGNMLHWWFDQNKEEIERYLKKHPEKQKIIFNNQEWFDVKAAIDTKDSQTNSKLFNYFRDKAFPNLSARQLGVMPDLVLDMFINGYYLNLPKTQSTDVNRPYQDKDKRGGIFDAVFTRGDQTTLLTARHDLKNKGLNEISDLIKQELTEGKALALSHTYANVRINHVINLWGADFDAEGNLIAIYVTDSDANASIGMKKYAVGVNANGKVAISAKKIEGDNIGAQVLGLFTLSTGQDIWQKLS
**A:** 235 ng/µL

**Q:** Hello, please tell me recorded Enzyme Activity Endpoint Assay: IgG for this one: PRT-478 (protein) MITSVWTKGVTPPTDFIYGEDVLHAPYKAGQGWYDITKAFDGGDDLLCGAATAGNMLHWWFDQNKEQIENYLKKHPEKQKINFNGEQMFDVKEAIDTKDSQTNSELFNYFKEKAFPYLSTKHLGVFPDHVIDMFINGYRLSLTNHGPTPVKRQEKDPRGGIFDAVFGRGDQTKLLTNRHDFKEKTLNEISQLIKQELTEGKALGISHTYANVRINHVINLWGADFDAEGNLEAIYVTDSDSNASIGMKKYFVGVNSNGKVAISAKEIEEDNIGAQVLGLFTLSTGQKIWNKTNLEHHHHHH
**A:** 216 ng/µL

**Q:** Hello, please tell me recorded Enzyme Activity Endpoint Assay: IgG for this one: PRT-109 (protein) MRNATEAYAKEVPHTITSVWTKGVTPLTPEQFRYNNEDVIHAPYVAHQGWYDITKTFDGKDNLLCGAATAGNMLHWWFDQNKTEIEAYLSKHPEKQKIIFNNQELFDLKAAIDTKDSQTNSQLFNYFRDKAFPNLSARQLGVMPDLVLDMFINGYYLNVFKTQSTDVNRPYQDKDKRGGIFDAVFTRGDQTTLLTARHDLKNKGLNEISTLIKQELTEGKALALSHTYANVSISHVINLWGADFNAEGNLEAIYVTDSDDNASIGMKKYFVGVNAAGKVAISAKKIEGENIGAQVLGLFTLSSGKDIWQKLS
**A:** 28 ng/µL

**Q:** Hello, please tell me recorded Enzyme Activity Endpoint Assay: IgG for this one: PRT-187 (protein) MANQEIRYSEVTPYHVTSVWTKGVTPPADFTYGEDVFHAPYVANQGWYDITKTFNGKDDLLCGAATAGNMLHWWFDQNKEQIEKYLKKHPEKQKIMFGDQELLDVRKVINTKGSQTNSELFNYFRDKAFPGLSARRLGVMPDLVLDMFINGYYLNVYKTQTTDVNRTYQEKDKRGGIFDAVFTRGDQSKLLTSRHDFKEKNLKEISDLIKQELTEGKALGLSHTYANVRINHVINLWGADFDSNGNLKAIYVTDSDSNASIGMKKYFVGVNSAGKVAISAKEIKEDNIGAQVLGLFTLSTGQDIWNQTN
**A:** 115 ng/µL

Reference source for all entries: patent US20250027068
